Reported MIC values for a set of compounds
- System: Pichia kudriavzevii
- METHOD_SUMMARY: Antimicrobial activity against Candida krusei NZCDC 89.102 after 48 hrs by liquid microdilution assay
- Assay type: functional
- MEASUREMENT_SETUP: NZCDC 89.102, 48 h
QUANTITY_KIND: MIC (µg/mL)

[[record]]
compound = "CCC(C)n1ncn(-c2ccc(N3CCN(c4ccc(OCC5COC(Cn6cncn6)(c6ccc(Cl)cc6Cl)O5)cc4)CC3)cc2)c1=O (stereo not given)"
result = 2

[[record]]
compound = "C[C@@H](c1ncncc1F)[C@](O)(Cn1cncn1)c1ccc(F)cc1F"
result = 2

[[record]]
compound = "CC(=O)N1CCN(c2ccc(OCC3COC(Cn4ccnc4)(c4ccc(Cl)cc4Cl)O3)cc2)CC1 (stereo not given)"
result = 4

[[record]]
compound = "OC(Cn1cncn1)(Cn1cncn1)c1ccc(F)cc1F"
result = 256

[[record]]
compound = "Clc1ccc(COC(Cn2ccnc2)c2ccc(Cl)cc2Cl)c(Cl)c1 (stereo not given)"
result = 4


====

The entries below come with measured MIC values attached.
- System: Pichia kudriavzevii
- METHOD_SUMMARY: Antimicrobial activity against Candida krusei NZCDC 89.221 after 48 hrs by CLSI method
- Type: functional
QUANTITY_KIND: MIC (µg/mL)

[[record]]
compound = "Clc1ccc(COC(Cn2ccnc2)c2ccc(Cl)cc2Cl)c(Cl)c1 (stereo not given) [MICONAZOLE]"
assay_target = "Pichia kudriavzevii"
quantity_kind = "MIC"
result = 2

[[record]]
compound = "OC(Cn1cncn1)(Cn1cncn1)c1ccc(F)cc1F [FLUCONAZOLE]"
assay_target = "Pichia kudriavzevii"
quantity_kind = "MIC"
result = 32

[[record]]
compound = "CC(=O)N1CCN(c2ccc(OCC3COC(Cn4ccnc4)(c4ccc(Cl)cc4Cl)O3)cc2)CC1 (stereo not given) [KETOCONAZOLE]"
assay_target = "Pichia kudriavzevii"
quantity_kind = "MIC"
result = 0.5

[[record]]
compound = "CCC(C)n1ncn(-c2ccc(N3CCN(c4ccc(OCC5COC(Cn6cncn6)(c6ccc(Cl)cc6Cl)O5)cc4)CC3)cc2)c1=O (stereo not given) [ITRACONAZOLE]"
assay_target = "Pichia kudriavzevii"
quantity_kind = "MIC"
result = 0.125

[[record]]
compound = "C[C@@H](c1ncncc1F)[C@](O)(Cn1cncn1)c1ccc(F)cc1F [VORICONAZOLE]"
assay_target = "Pichia kudriavzevii"
quantity_kind = "MIC"
result = 0.5


====

- System: Pichia kudriavzevii
- METHOD_SUMMARY: Antimicrobial activity against Candida krusei NZCDC 89.102 after 48 hrs by CLSI method
- Format: functional
QUANTITY_KIND: MIC (µg/mL)

[[record]]
molecule = "C[C@@H](c1ncncc1F)[C@](O)(Cn1cncn1)c1ccc(F)cc1F"
result = 0.5

[[record]]
molecule = "CC(=O)N1CCN(c2ccc(OCC3COC(Cn4ccnc4)(c4ccc(Cl)cc4Cl)O3)cc2)CC1 (stereo not given)"
result = 0.5

[[record]]
molecule = "CCC(C)n1ncn(-c2ccc(N3CCN(c4ccc(OCC5COC(Cn6cncn6)(c6ccc(Cl)cc6Cl)O5)cc4)CC3)cc2)c1=O (stereo not given)"
result = 0.25

[[record]]
molecule = "OC(Cn1cncn1)(Cn1cncn1)c1ccc(F)cc1F"
result = 32

[[record]]
molecule = "Clc1ccc(COC(Cn2ccnc2)c2ccc(Cl)cc2Cl)c(Cl)c1 (stereo not given)"
result = 2

